Target: bovine erythrocyte CA-II (Bos taurus, UniProt P00921)
Construct: purified bovine erythrocyte CA-II; from tissue; host or cells: bovine erythrocytes
Sequence (P00921 2-260): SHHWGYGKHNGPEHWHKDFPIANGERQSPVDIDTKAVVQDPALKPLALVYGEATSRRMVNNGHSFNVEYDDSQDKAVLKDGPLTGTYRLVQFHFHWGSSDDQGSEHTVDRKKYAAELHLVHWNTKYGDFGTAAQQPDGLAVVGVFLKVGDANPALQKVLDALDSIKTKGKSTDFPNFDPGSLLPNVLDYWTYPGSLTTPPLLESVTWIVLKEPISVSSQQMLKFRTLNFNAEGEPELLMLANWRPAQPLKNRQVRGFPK
Assay: Carbonic anhydrase II inhibition assay (colorimetric, 4-nitrophenyl acetate substrate)
Type: biochemical
Settings: test concentration not given
outcome measure: % Inhibition (%)

# annotated cases, reported % Inhibition shown
| structure smiles | endpoint unit | % Inhibition |
| --- | --- | --- |
| COc1ccc(OC)c(-c2nnc(C[C@H](NC(=O)OC(C)(C)C)c3ccccc3)o2)c1 | % | 87.8 |
| CC(C)(C)OC(=O)N[C@@H](Cc1nnc(-c2ccccc2O)o1)c1ccccc1 | % | 93.5 |
| CC(C)(C)OC(=O)N[C@@H](Cc1nnc(-c2ccccn2)o1)c1ccccc1 | % | 96.2 |

P. CC(C)(C)OC(=O)N[C@@H](Cc1nnc(-c2ccc(O)cc2)o1)c1ccccc1
Q. COc1ccc(-c2nnc(C[C@H](NC(=O)OC(C)(C)C)c3ccccc3)o2)cc1OC
Query: Field: entry with larger % Inhibition (options P / Q ). Respond with the label that goes with your answer.
Reply: Q
(Q: 96.7%, P: 58.0%)

Source of measurements: paper PMC8838037
